Recorded values, source patent US20260209346A1.

target-desc: T1, CD79b endogenously expressed on the cell surface (malignant B cell lines, normal B cells in PBMC, CLL … (human, UniProt P40259 29-229))
T1 construct: whole, on cells; On cells CD79b stands in the B-cell receptor complex with CD79a and surface Ig; also called cell surface CD79b; endogenous CD79b
T1 sequence (looked up): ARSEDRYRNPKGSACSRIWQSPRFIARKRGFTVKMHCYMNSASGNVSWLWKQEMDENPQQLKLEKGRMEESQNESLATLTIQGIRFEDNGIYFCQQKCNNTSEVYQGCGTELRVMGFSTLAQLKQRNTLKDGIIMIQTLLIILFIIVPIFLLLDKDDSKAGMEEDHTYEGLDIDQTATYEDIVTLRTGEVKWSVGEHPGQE
assay-name: flow cytometry on Ramos cells; anti-human IgG1-PE; MFI (PE); table under the graph
Experimental: The binding affinities of anti-CD79b antibodies to malignant B cell lines were tested. […] The cells were then incubated with 100 μl anti-human IgG1-PE (Invitrogen, cat: 12-4998-82), 1:1000 dilution, for 30 min on ice, washed with 200 ul PBS for three times before flow cytometry analysis.
measure-name: EC50 (nM)
Numbers only, in nM.

ch44G2 (antibody, human IgG1, kappa, V domains shown, Rabbit/human chimeric IgG1 kappa; also called chimeric 44G2) VH: QSVRETGGGLVQPGGSLKLSCKASGFTINIDYWISWVRQAPGKGLEWIGIIDPGDGTTYFAIWVSGRFTISFDNTQNTVDLQMNSLTAADTATYFCVREFSASAYQYDLWGPGTLVTVSS VL: DLVMTQTPSSVSAAVGGTVSINCRASEDIENYLAWYQQKPGQPPKLLIYRASTLSSGVSSRFSGSGSGTEFTLTISGVQPDDAATYYCQQGYRNSNVDNPFGGGTEMVVKR :: 0.86
ch57B9 (antibody, human IgG1, kappa, V domains shown, Rabbit/human chimeric IgG1 kappa; also called chimeric 57B9) VH: QSVRETGGGLVQPGGSLTLSCEASEFTINIDYWISWVRQAPGKGLEWIGIIDPGDGTTYFAIWVSGRFTITRNTNLNTVDLKMTSLTEADTATYFCAREVSASAYQYDLWGPGTLVTVSS VL: ALVMTQTPSSVSADVGGTVSINCQASEDIESYLAWYQQKPGQPPKLLIYFTSNLASGVPSRFKGSGSGTEYTLTISGVQPDDAATYYCQQGYRNSDVHNPFGGGTEVVVKR :: 1.3

Kindly consider the entry below.
Q. So what does the record say about EC50 for ch23D8 (antibody, human IgG1, kappa, V domains shown, Rabbit/human chimeric IgG1 kappa; also called chimeric 23D8) VH: QSLEESGGGLVTPGGTLTLTCTVSGLSLSSNAINWVRQAPGKGLEWIGMIYSGGRIEYASWAKGRFTISKTSTTVDLKITSPTTEDTATYFCAKGMSPSAHSSDIWGPGTLVTVSA VL: AYDMTQTPASVEVAVGGTVTIKCQASQSISDNLSWYQQKPGQPPKLLIYDASDLASGVPSRFSGSGSGTEFTLTISDLEPADAATYYCQQDWISSNVDNTFGGGTEVVVKR ?
A. 1.4
